All figures here come from BigSolDB 2.1.

- measurement.setup: in methanol, 308.15 K

smiles.string | solubility (mole fraction)
Cc1cc([N+](=O)[O-])ccc1N | 0.0231

* * *

- measurement.setup: in toluene, 290.65 K

smiles.string | solubility (mole fraction)
Cc1cc([N+](=O)[O-])ccc1N | 0.00285

* * *

- measurement.setup: in n-butanol, 305.65 K

smiles.string | solubility (mole fraction)
Cc1cc([N+](=O)[O-])ccc1N | 0.016

* * *

- measurement.setup: in isopropanol, 298.15 K

smiles.string | solubility (mole fraction)
Cc1cc([N+](=O)[O-])ccc1N | 0.0106

* * *

- measurement.setup: in toluene, 283.15 K

smiles.string | solubility (mole fraction)
Cc1cc([N+](=O)[O-])ccc1N | 0.00204
